Assay target: T1, mouse MMP-2 (Mus musculus, UniProt P33434)
T1 construct: purchased R&D Systems 924-MP-010
T1 sequence (P33434 110-662): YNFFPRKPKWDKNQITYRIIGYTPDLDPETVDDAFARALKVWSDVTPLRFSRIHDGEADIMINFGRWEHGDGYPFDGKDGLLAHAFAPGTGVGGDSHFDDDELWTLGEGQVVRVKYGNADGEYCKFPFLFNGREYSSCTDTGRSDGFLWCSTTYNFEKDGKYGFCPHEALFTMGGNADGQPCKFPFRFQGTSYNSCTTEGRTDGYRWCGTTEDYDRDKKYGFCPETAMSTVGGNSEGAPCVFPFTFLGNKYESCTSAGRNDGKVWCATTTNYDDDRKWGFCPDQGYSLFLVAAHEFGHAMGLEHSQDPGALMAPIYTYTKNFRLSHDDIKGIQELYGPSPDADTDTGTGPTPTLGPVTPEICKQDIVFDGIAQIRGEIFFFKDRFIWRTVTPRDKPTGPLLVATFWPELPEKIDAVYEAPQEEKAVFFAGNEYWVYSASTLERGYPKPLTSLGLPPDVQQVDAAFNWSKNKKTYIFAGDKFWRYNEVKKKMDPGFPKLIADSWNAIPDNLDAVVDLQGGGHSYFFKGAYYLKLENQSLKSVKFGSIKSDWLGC
Method summary: Enzyme inhibition assay (single point inhibition, IC50/Ki,app), substrate M-2350
Assay type: biochemical
Condition details: medium-scale sFab; Table 10
Experimental: 343 unique sFabs from the anti-MMP-9/-2 M237-D02 affinity maturation campaign were discovered by phage display, produced in small scale (6 mL cultures in deep 24-well plates) and screened to select inhibitors with sub-nanomolar potency against the human enzymes and at least single-digit nanomolar potency toward the mouse orthologues. […] Isolates which appeared potent against both human and mouse MMP-2 were then subjected to IC50 analysis against hMMP-9. […]
In this scheme, each record receives a class according to its Ki; the ranges are lower level = under 4 nM, middle level = from 4 nM up to 20 nM, upper level = 20 nM and over

# example entries with known answers
{"Molecule": "M0256-D11: affinity matured variant of M237-D02, sFab (antibody, V domains shown) VH: EVQLLESGGGLVQPGGSLRLSCAASGFTFSHYDMWWVRQAPGKGLEWVSVIYSSGGPTFYADSVKGRFTISRDNSKNTLYLQMNSLRAEDTAVYYCAKDRAYGDYVGWNGFDYWGQGTLVTVSS VL: QDIQMTQSPATLSLSPGERATLSCRASQSISSFLAWYQQKPGQAPRLLIYDASYRATGIPARFSGSGSGTDFTLTISSLEPEDYAVYYCQQRGNWPITFGQGTRLEIK", "Cat": "middle level"}
{"Molecule": "M0275-D03: affinity matured variant of M237-D02, sFab (antibody, V domains shown) VH: EVQLLESGGGLVQPGGSLRLSCAASGFTFSQYDMWWVRQAPGKGLEWVSVIYPSGTTFYADSVKGRFTISRDNSKNTLYLQMNSLRAEDTAVYYCAKDRAYGDYVGWNGFDYWGQGTLVTVSS VL: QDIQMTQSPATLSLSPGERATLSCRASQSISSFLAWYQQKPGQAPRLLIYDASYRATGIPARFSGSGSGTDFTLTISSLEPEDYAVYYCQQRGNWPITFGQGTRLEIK", "Cat": "middle level"}

Req: Place this molecule in its band: M0301-A09: affinity matured variant of M237-D02, sFab (antibody, V domains shown) VH: EVQLLESGGGLVQPGGSLRLSCAASGFTFSYYDMWWVRQAPGKGLEWVSVIYPSGGYTAYADSVKGRFTISRDNSKNTLYLQMNSLRAEDTAVYYCAKDRAYGDYVGWNGFDYWGQGTLVTVSS VL: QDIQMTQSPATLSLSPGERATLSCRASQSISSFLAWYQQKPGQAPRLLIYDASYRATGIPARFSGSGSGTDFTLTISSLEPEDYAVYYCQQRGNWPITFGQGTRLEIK
Resp: upper level

Req: Which of the defined bands does the recorded Ki of M0276-F11: affinity matured variant of M237-D02, sFab (antibody, V domains shown) VH: EVQLLESGGGLVQPGGSLRLSCAASGFTFSWYDMWWVRQAPGKGLEWVSVIYSSGGPTFYADSVKGRFTISRDNSKNTLYLQMNSLRAEDTAVYYCAKDRAYGDYVGWNGFDYWGQGTLVTVSS VL: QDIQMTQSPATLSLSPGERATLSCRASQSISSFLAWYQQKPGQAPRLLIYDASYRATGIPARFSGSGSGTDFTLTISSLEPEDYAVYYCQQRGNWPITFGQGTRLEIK sit within?
Resp: lower level

Req: Tag the class for M0273-G07: affinity matured variant of M237-D02, sFab (antibody, V domains shown) VH: EVQLLESGGGLVQPGGSLRLSCAASGFTFSHYDMWWVRQAPGKGLEWVSVIYPSGGPTYYADSVKGRFTISRDNSKNTLYLQMNSLRAEDTAVYYCAKDRAYGDYVGWNGFDYWGQGTLVTVSS VL: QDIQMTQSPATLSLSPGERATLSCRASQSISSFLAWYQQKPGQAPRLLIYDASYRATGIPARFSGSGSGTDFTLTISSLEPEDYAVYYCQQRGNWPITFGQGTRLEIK
Resp: upper level

Req: Class? Entry: M0273-A11: affinity matured variant of M237-D02, sFab (antibody, V domains shown) VH: EVQLLESGGGLVQPGGSLRLSCAASGFTFSRYDMWWVRQAPGKGLEWVSVISPSGGATFYADSVKGRFTISRDNSKNTLYLQMNSLRAEDTAVYYCAKDRAYGDYVGWNGFDYWGQGTLVTVSS VL: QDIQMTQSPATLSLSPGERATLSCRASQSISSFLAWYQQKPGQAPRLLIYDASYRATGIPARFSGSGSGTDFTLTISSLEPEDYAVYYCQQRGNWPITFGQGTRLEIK
Resp: upper level

Req: Which class is correct for the following molecule? M0274-G08: affinity matured variant of M237-D02, sFab (antibody, V domains shown) VH: EVQLLESGGGLVQPGGSLRLSCAASGFTFSVYDMWWVRQAPGKGLEWVSVIYPSGGATYYADSVKGRFTISRDNSKNTLYLQMNSLRAEDTAVYYCAKDRAYGDYVGWNGFDYWGQGTLVTVSS VL: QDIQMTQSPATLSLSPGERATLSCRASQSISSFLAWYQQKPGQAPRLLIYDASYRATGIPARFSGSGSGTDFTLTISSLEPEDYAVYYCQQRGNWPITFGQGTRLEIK
Resp: lower level

Req: Category of M0273-C10: affinity matured variant of M237-D02, sFab (antibody, V domains shown) VH: EVQLLESGGGLVQPGGSLRLSCAASGFTFSFYPMWWVRQAPGKGLEWVSYIYPSGGATFYADSVKGRFTISRDNSKNTLYLQMNSLRAEDTAVYYCAKDRAYGDYVGWNGFDYWGQGTLVTVSS VL: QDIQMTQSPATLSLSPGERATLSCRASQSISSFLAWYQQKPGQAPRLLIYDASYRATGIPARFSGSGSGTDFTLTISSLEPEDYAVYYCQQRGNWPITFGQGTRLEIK :
Resp: middle level

Req: Could you tell me which band M0275-E12: affinity matured variant of M237-D02, sFab (antibody, V domains shown) VH: EVQLLESGGGLVQPGGSLRLSCAASGFTFSHYDMWWVRQAPGKGLEWVSVIYSSGGFTGYADSVKGRFTISRDNSKNTLYLQMNSLRAEDTAVYYCAKDRAYGDYVGWNGFDYWGQGTLVTVSS VL: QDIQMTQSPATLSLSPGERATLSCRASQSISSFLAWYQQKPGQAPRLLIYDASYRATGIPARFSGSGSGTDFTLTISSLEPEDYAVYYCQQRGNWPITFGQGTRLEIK belongs to?
Resp: middle level
